For reference, pIC50 measured on Acetylcholinesterase (Homo sapiens):
pIC50 is defined as minus the log10 of a concentration measured in mol/L.

Record excerpt, results attached:
- STRUCTURE: "C[N+]1(C)CCO[C@@](O)(c2ccc(Cl)cc2)C1"
  SYSTEM UNDER TEST: "Acetylcholinesterase (Homo sapiens)"
  pIC50: 2.09
- STRUCTURE: "CC(=O)Oc1cccc([N+](C)(C)C)c1C"
  SYSTEM UNDER TEST: "Acetylcholinesterase (Homo sapiens)"
  pIC50: 4.39
- STRUCTURE: "CCCC(=O)SCC[N+](C)(C)C"
  SYSTEM UNDER TEST: "Acetylcholinesterase (Homo sapiens)"
  pIC50: 3.90
- STRUCTURE: "COc1cccc([N+](C)(C)C)c1"
  SYSTEM UNDER TEST: "Acetylcholinesterase (Homo sapiens)"
  pIC50: 3.22
- STRUCTURE: "CC(C)(C)[C@@]1(O)C[N+](C)(C)CCO1"
  SYSTEM UNDER TEST: "Acetylcholinesterase (Homo sapiens)"
  pIC50: 2.43
- STRUCTURE: "COc1ccc(C)c([N+](C)(C)C)c1"
  SYSTEM UNDER TEST: "Acetylcholinesterase (Homo sapiens)"
  pIC50: 3.46
- STRUCTURE: "C=CCCC[N+](C)(C)C"
  SYSTEM UNDER TEST: "Acetylcholinesterase (Homo sapiens)"
  pIC50: 2.95
- STRUCTURE: "C[N+]1(C)CCO[C@@](O)(c2ccc(C#N)cc2)C1"
  SYSTEM UNDER TEST: "Acetylcholinesterase (Homo sapiens)"
  pIC50: 1.94

Noted pIC50 for CCSCC[N+](C)(C)C , tested on Acetylcholinesterase (Homo sapiens): 2.82

Noted pIC50 for C[N+](C)(C)CCCl , tested on Acetylcholinesterase (Homo sapiens): 2.62

Noted pIC50 for Cc1ccc([N+](C)(C)C)cc1O , tested on Acetylcholinesterase (Homo sapiens): 5.51

Noted pIC50 for CCC(=O)Oc1cc([N+](C)(C)C)ccc1C , tested on Acetylcholinesterase (Homo sapiens): 5.42

Noted pIC50 for C[N+](C)(C)c1cccc(O)c1 , tested on Acetylcholinesterase (Homo sapiens): 6.01

Noted pIC50 for C[N+](C)(C)CCCBr , tested on Acetylcholinesterase (Homo sapiens): 4.06

Noted pIC50 for CCOCC[N+](C)(C)C , tested on Acetylcholinesterase (Homo sapiens): 2.94

Noted pIC50 for C[N+]1(C)CCO[C@@](O)(C(F)(F)F)C1 , tested on Acetylcholinesterase (Homo sapiens): 2.42

Noted pIC50 for C[N+](C)(C)CCCCBr , tested on Acetylcholinesterase (Homo sapiens): 3.22

Noted pIC50 for Cc1c(O)cccc1[N+](C)(C)C , tested on Acetylcholinesterase (Homo sapiens): 3.85

Noted pIC50 for CC(=O)Nc1ccc([C@@]2(O)C[N+](C)(C)CCO2)cc1 , tested on Acetylcholinesterase (Homo sapiens): 2.68

Noted pIC50 for C[N+](C)(C)CCS , tested on Acetylcholinesterase (Homo sapiens): 3.36

----------
For reference, pIC50 measured on GABA-A receptor; anion channel:

Record excerpt, results attached:
- COMPOUND: "c1ccc2c(c1)[nH]c1c2ncc2[nH]c3ccccc3c21"
  SYSTEM UNDER TEST: "GABA-A receptor; anion channel"
  pIC50: 8.4
- COMPOUND: "Cc1ccc2[nH]c3c4c5ccccc5nc-4c[nH]c3c2c1"
  SYSTEM UNDER TEST: "GABA-A receptor; anion channel"
  pIC50: 6.65

Noted pIC50 for Cc1nccc2c1[nH]c1ccccc12 , tested on GABA-A receptor; anion channel: 4.91

Noted pIC50 for CCOc1cc2c(cn1)[nH]c1ccccc12 , tested on GABA-A receptor; anion channel: 7.62

Noted pIC50 for CCCOc1cc2c(cn1)[nH]c1ccccc12 , tested on GABA-A receptor; anion channel: 7.96

Noted pIC50 for CC(C)Oc1cc2c(cn1)[nH]c1ccccc12 , tested on GABA-A receptor; anion channel: 6.29

Noted pIC50 for CCC(C)Oc1cc2c3ccccc3nc-2c[nH]1 (stereo not given) , tested on GABA-A receptor; anion channel: 6.33

Noted pIC50 for c1ccc2c(c1)[nH]c1cnccc12 , tested on GABA-A receptor; anion channel: 5.79

Noted pIC50 for CCCC(=O)c1cc2c(cn1)[nH]c1ccccc12 , tested on GABA-A receptor; anion channel: 7.64

Noted pIC50 for Cn1c2ccccc2c2c3[nH]c4ccccc4c3ncc21 , tested on GABA-A receptor; anion channel: 5.93

Data origin, for the record: ChEMBL document CHEMBL1130277
